# target-entity: IRAK4 enzyme (Homo sapiens (Human), UniProt Q9NWZ3)
# Sequence (Q9NWZ3 whole entry): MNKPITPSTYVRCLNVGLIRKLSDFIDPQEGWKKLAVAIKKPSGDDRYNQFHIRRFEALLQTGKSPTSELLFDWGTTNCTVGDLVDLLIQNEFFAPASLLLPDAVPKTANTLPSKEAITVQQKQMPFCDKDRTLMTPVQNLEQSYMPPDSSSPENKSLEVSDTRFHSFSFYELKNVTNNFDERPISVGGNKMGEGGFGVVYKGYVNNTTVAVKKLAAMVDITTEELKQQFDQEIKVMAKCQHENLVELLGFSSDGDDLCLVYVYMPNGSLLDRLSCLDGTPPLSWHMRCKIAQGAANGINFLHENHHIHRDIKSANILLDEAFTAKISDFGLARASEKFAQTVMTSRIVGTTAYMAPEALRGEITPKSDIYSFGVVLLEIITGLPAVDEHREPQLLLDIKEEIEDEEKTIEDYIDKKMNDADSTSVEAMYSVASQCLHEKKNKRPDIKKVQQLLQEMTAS
# assay: IRAK4 Biochemical Assay (TR-FRET, STK1 KinEASE)
# run-conditions: compounds 1-32; read-out: IC50 HTRF
Measured pIC50, listed per entry for reference.
The quantity pIC50 is defined as the negative base-10 logarithm of the molar concentration.

{"columns": ["smiles-structure", "pIC50"],
 "data": [
  ["CC(=O)N[C@H]1CC[C@H](c2nnc(-c3cnc(-c4ccc5cc(C#N)cnn45)cc3N[C@H]3CC[C@H](c4nnc(C(F)F)o4)CC3)s2)CC1", 9.00],
  ["CC(C)Nc1cc(-c2ccc3cc(C#N)cnn23)ncc1-c1nnc(NC[C@@H](F)C(C)(C)O)s1", 9.00],
  ["CC(C)Nc1cc(-c2ccc3cc(C#N)cnn23)ncc1-c1nnc(N2CCC3(CC2)COC3)s1", 9.00],
  ["CC(C)Nc1cc(-c2ccc3cc(C#N)cnn23)ncc1-c1nnc(C(=O)N2CCOCC2)s1", 6.00]
]}

input: Which measured pIC50 value corresponds to `CC(=O)Nc1nnc(-c2cnc(-c3ccc4cc(C#N)cnn34)cc2NC(C)C)s1` ?
output: 9.00

* * *

# System: TNFα
# assay: IRAK4 Monocyte TNFα Cell Based Assay
# Design: species or system human
# run-conditions: Homo sapiens, Monocyte, human monocytes, LPS stimulated; compounds 1-32; read-out: EC50 TNF
Entries get a class label from measured EC50. See ranges: bin A = under 9 nM, bin B = from 9 nM up to 60 nM, bin C = 60 nM and over

{"columns": ["compound", "assigned-class"],
 "data": [
  ["CC(=O)N[C@H]1CC[C@H](c2nnc(-c3cnc(-c4ccc5cc(C#N)cnn45)cc3NC3COC3)s2)CC1 [Example 21]", "bin B"],
  ["CC(C)Nc1cc(-c2ccc3cc(C#N)cnn23)ncc1-c1nnc(-n2cccc2)s1 [Example 28]", "bin C"],
  ["CNc1cc(-c2ccc3cc(C#N)cnn23)ncc1-c1nnc([C@H]2CC[C@H](NC(C)=O)CC2)s1 [Example 22]", "bin B"],
  ["CC(=O)N1CCN(C(=O)c2nnc(-c3cnc(-c4ccc5cc(C#N)cnn45)cc3NC(C)C)s2)CC1 [Example 10]", "bin C"],
  ["CC(=O)N[C@H]1CC[C@H](c2nnc(-c3cnc(-c4ccc5cc(C#N)cnn45)cc3NCC#N)s2)CC1 [Example 20]", "bin A"]
]}

input: Band of COC(=O)NC[C@H]1C[C@H](Nc2cc(-c3ccc4cc(C#N)cnn34)ncc2-c2nnc([C@H]3CC[C@H](NC(C)=O)CC3)s2)C1 [Example 23] ?
output: bin A

input: Kindly identify the class of CC(=O)N[C@@H]1CCN(C(=O)c2nnc(-c3cnc(-c4ccc5cc(C#N)cnn45)cc3NC(C)C)s2)C1 [Example 13] .
output: bin B

* * *

# target-entity: IRAK4 enzyme (Homo sapiens (Human))
# assay: IRAK4 Biochemical Assay (TR-FRET, STK1 KinEASE)
# Description: IRAK4 enzyme (Carna Biosciences, Chuo-ku, Kobe, Japan) activity was measured by detecting phosphorylated peptide substrate formation using an antibody against the phosphorylated peptide substrate. This is a time-resolved fluorescence resonance energy transfer (TR-FRET) immunoassay, based on the STK1 KinEASE Assay (Cisbio, Bedford, Mass.). […] Fluorescence intensities at 615 nm and 665 nm emission wavelengths were expressed as aratio (665 nm/615 nm). […]
quantity-name: pIC50
Note on pIC50: it is the negative log10 of concentration, concentration in mol/L.

These solved cases illustrate the format of a correct answer.
{"columns": ["smiles-structure", "pIC50"],
 "data": [
  ["CC(C)Nc1cc(-c2ccc3cc(C#N)cnn23)ncc1-c1nnc(N2CC3CCC(C2)O3)s1", 9.32],
  ["CC(C)Nc1cc(-c2ccc3cc(C#N)cnn23)ncc1-c1nnc(N2CC[C@](C)(O)[C@H](F)C2)s1", 8.92]
]}

Attention now shifts to the item below.
input: State its pIC50 on IRAK4 enzyme (Homo sapiens (Human)): `CC(C)Nc1cc(-c2ccc3cc(C#N)cnn23)ncc1-c1nnc(CC(=O)O)s1`
output: 8.77
